Every entry's value here was drawn from patent US20170316147A1.

- Target desc: T1, chimeric human Bcl-2 (with the internal loop 51-91 removed and residues 35-50 replaced by residues 33-48 of … (human; mouse, UniProt P10415 1-34; Q64373 33-48; P10415 92-207)
- T1 construct: also called recombinant Bcl-2; Bc1-2
- T1 sequence (P10415 other isoform, or with tags, fused parts or gaps mutant limits assumed): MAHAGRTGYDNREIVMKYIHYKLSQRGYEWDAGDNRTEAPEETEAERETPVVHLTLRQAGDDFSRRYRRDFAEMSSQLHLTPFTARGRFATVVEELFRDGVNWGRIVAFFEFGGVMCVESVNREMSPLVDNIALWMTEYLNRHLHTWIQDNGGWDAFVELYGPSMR
- Assay summary: fluorescence anisotropy (FA), same experiment as FIG. 5(a), rounded
No end group written: not given here.
Measurement kind: Kd (nM)
One number for each entry, in nM.

Exercise: Please report the recorded Kd for QDASTKKLSECLRRIGDELDSNMELQRMIAD (also: fluorescein label, position not given here, Bought from Genscript; also called Bax-BH3 peptide) [fluorescence-labeled peptide QDASTKKLSECLRRIGDELDSNMELQRMIAD corresponding to Bax-BH3] .
Solution: 128
